The values you see were collected from patent US11339193B2.

Tested on: HER3ss-Gluc
method: HER3ss assay
Format: cell-based
particulars: HEK-293T T-rex cells, transient transfection, doxycycline, 24 h; read-out: HER3 ss IC50
Numbered stars: 1 amine (or outer) side, 2 acyl side, 3 side chain; on linkers, the order of the positions; unused ones are H or OH. Square brackets hold non-standard residues; d marks the D form. Peptide text beside a SMILES is read from it. NMeAla(5-Cl-benzothien-3-yl) = CN[C@@H](Cc1csc2ccc(Cl)cc12)C(=O)O; X18 = Cc1ccc(Cn2cc(C[C@@H](C(=O)[*:2])N(C)[*:1])c3ccccc32)cc1; X14 = CC#CCn1cc(C[C@@H](C(=O)[*:2])N(C)[*:1])c2ccccc21; X16 = CN([C@@H](Cc1csc2c(Cl)cccc12)C(=O)[*:2])[*:1]; Ala(1-cyclohexenyl) = N[C@@H](CC1=CCCCC1)C(=O)O; Butanoyl(2R-oxy,4-CN) = N#CCC[C@@H](O)C(=O)O; Abu(4,4,4-F3) = N[C@@H](CC(F)(F)F)C(=O)O; NMeL = CN[C@@H](CC(C)C)C(=O)O; NMeA = CN[C@@H](C)C(=O)O
Reported IC50 is given for each of the following compounds.

compound	IC50, nM
CC(C)C[C@@H]1NC(=O)[C@H](Cc2csc3c(Cl)cccc23)N(C)C(=O)[C@H](CC(C)C)NC(=O)[C@H](CC(C)C)N(C)C(=O)[C@H](CC(F)(F)F)NC(=O)[C@@H](CCC#N)OC(=O)[C@H](C)N(C)C1=O [C-94] (cyclo(L[NMeA][Butanoyl(2R-oxy,4-CN)][Abu(4,4,4-F3)][NMeL]L[X16]))	74
CC(C)C[C@@H]1NC(=O)[C@H](Cc2csc3ccc(Cl)cc23)N(C)C(=O)[C@H](CC(F)(F)F)NC(=O)[C@H](CC(C)C)N(C)C(=O)[C@H](CC(C)C)NC(=O)[C@@H](CCC#N)OC(=O)[C@H](C)N(C)C1=O [C-92] (cyclo(L[NMeA][Butanoyl(2R-oxy,4-CN)]L[NMeL][Abu(4,4,4-F3)][NMeAla(5-Cl-benzothien-3-yl)]))	98
CC(C)C[C@@H]1NC(=O)[C@H](Cc2cn(Cc3ccc(Br)cc3)c3ccccc23)N(C)C(=O)[C@H](CC(C)C)NC(=O)[C@H](CC(C)C)N(C)C(=O)[C@H](CC(C)C)NC(=O)[C@@H](CCC#N)OC(=O)[C@H](C)N(C)C1=O [C-14] (HELM PEPTIDE1{L.[meA].[N#CCC[C@@H](O[*:1])C(=O)[*:2]].L.[meL].L.[CN([C@@H](Cc1cn(Cc2ccc(Br)cc2)c2ccccc12)C(=O)[*:2])[*:1]]}$PEPTIDE1,PEPTIDE1,1:R1-7:R2$$$V2.0)	51
CC(C)C[C@@H]1NC(=O)[C@H](CC(C)C)N(C)C(=O)[C@H](CC(F)(F)F)NC(=O)[C@@H](CCC#N)OC(=O)[C@H](C)N(C)C(=O)[C@H](CC2=CCCCC2)NC(=O)[C@H](Cc2csc3ccc(Cl)cc23)N(C)C1=O [C-88] (cyclo(L[NMeAla(5-Cl-benzothien-3-yl)][Ala(1-cyclohexenyl)][NMeA][Butanoyl(2R-oxy,4-CN)][Abu(4,4,4-F3)][NMeL]))	65
Cc1ccc(Cn2cc(C[C@H]3C(=O)N[C@@H](CC(C)C)C(=O)N(C)[C@@H](C)C(=O)O[C@H](CCC#N)C(=O)N[C@@H](CC(F)(F)F)C(=O)N(C)[C@@H](CC(C)C)C(=O)N[C@@H](CC(F)(F)F)C(=O)N3C)c3ccccc32)cc1 [C-83] (cyclo(L[NMeA][Butanoyl(2R-oxy,4-CN)][Abu(4,4,4-F3)][NMeL][Abu(4,4,4-F3)][X18]))	81
CC(C)C[C@@H]1NC(=O)[C@H](Cc2cn(Cc3cccc(Br)c3)c3ccccc23)N(C)C(=O)[C@H](CC(C)C)NC(=O)[C@H](CC(C)C)N(C)C(=O)[C@H](CC(C)C)NC(=O)[C@@H](CCC#N)OC(=O)[C@H](C)N(C)C1=O [C-77] (HELM PEPTIDE1{L.[meA].[N#CCC[C@@H](O[*:1])C(=O)[*:2]].L.[meL].L.[CN([C@@H](Cc1cn(Cc2cccc(Br)c2)c2ccccc12)C(=O)[*:2])[*:1]]}$PEPTIDE1,PEPTIDE1,1:R1-7:R2$$$V2.0)	787
CC#CCn1cc(C[C@H]2C(=O)N[C@@H](CC(C)C)C(=O)N(C)[C@@H](C)C(=O)O[C@H](CCC#N)C(=O)N[C@@H](CC(F)(F)F)C(=O)N(C)[C@@H](CC(C)C)C(=O)N[C@@H](CC(F)(F)F)C(=O)N2C)c2ccccc21 [C-91] (cyclo(L[NMeA][Butanoyl(2R-oxy,4-CN)][Abu(4,4,4-F3)][NMeL][Abu(4,4,4-F3)][X14]))	124
CC(C)C[C@@H]1NC(=O)[C@H](Cc2csc3ccc(Cl)cc23)N(C)C(=O)[C@H](CC(C)C)NC(=O)[C@H](CC(C)C)N(C)C(=O)[C@H](CC(C)C)NC(=O)[C@@H](CCC#N)OC(=O)[C@H](C)N(C)C1=O [C-93] (HELM PEPTIDE1{L.[meA].[N#CCC[C@@H](O[*:1])C(=O)[*:2]].L.[meL].L.[CN([C@@H](Cc1csc2ccc(Cl)cc12)C(=O)[*:2])[*:1]]}$PEPTIDE1,PEPTIDE1,1:R1-7:R2$$$V2.0)	38
